- Run description: Serum testosterone levels (RIA) in wounded male mice with testosterone implants
- Type: in vivo
- Setup conditions: male, Balb/cJASMU, mouse, serum, subcutaneous, 1 cm Silastic implant packed with crystalline testosterone; Intact + T males, 14 d
Assay readout: concentration at 14 d
Answer format: number, then unit.

Briefly, concentration at 14 d measured for C[C@]12CC[C@H]3[C@@H](CCC4=CC(=O)CC[C@@]43C)[C@@H]1CC[C@@H]2O [testosterone] : 6.3 ng/mL

---

- Run description: Serum testosterone levels (RIA) in wounded male mice with testosterone implants
- Type: in vivo
- Setup conditions: male, Balb/cJASMU, mouse, serum, subcutaneous, 1 cm Silastic implant packed with crystalline testosterone; Intact + T males, 3 d
Assay readout: concentration at 3 d (ng/mL)
Report as a plain number; the unit ng/mL is understood.

compound C[C@]12CC[C@H]3[C@@H](CCC4=CC(=O)CC[C@@]43C)[C@@H]1CC[C@@H]2O , concentration at 3 d observed: 5.9

---

- Run description: Serum testosterone levels (RIA) in wounded male mice with testosterone implants
- Format: in vivo
- Setup conditions: male, Balb/cJASMU, mouse, serum, subcutaneous, 1 cm Silastic implant packed with crystalline testosterone; Intact + T males, 7 d
Assay readout: concentration at 7 d (ng/mL)
Respond numerically; units are ng/mL and should not be typed.

Entry C[C@]12CC[C@H]3[C@@H](CCC4=CC(=O)CC[C@@]43C)[C@@H]1CC[C@@H]2O [testosterone] ; concentration at 7 d = 6.7
